ASSAYED_SYSTEM: T1, hIL2Rβ (hCD122) (human, UniProt P14784 27-239, limits assumed)
T1 construct: bought recombinant protein; also called hCD122 (Acro)
T1 sequence (looked up): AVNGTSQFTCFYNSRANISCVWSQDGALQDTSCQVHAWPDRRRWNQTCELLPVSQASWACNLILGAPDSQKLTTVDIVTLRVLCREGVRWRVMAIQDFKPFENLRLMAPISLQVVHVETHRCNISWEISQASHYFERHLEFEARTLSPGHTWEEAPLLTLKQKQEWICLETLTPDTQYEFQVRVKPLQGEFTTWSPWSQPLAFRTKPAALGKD
PROTOCOL_NOTES: ELISA (method of section 2.1.1): sample captured on coated goat anti-human IgG, hCD122 titrated; the x axis is the CD122 concentration
ASSAY_METRIC: binding result

IC-Cy08-QR (other, IC-Cy08 with light chain Q27R; also called H6K3(H)-Cy-08-QR) heavy: APTSSSTKKTQLQLEHLLLDLQMILNGINNYKNPKLTRMLTFKFYMPKKATELKHLQCLEEELGCLEEVLNLAQSKNFHLRPRDLISNIRVIVLELKGSETTFMCEYADETATIVEFLNRWITFCQSIISTLTGGGGSGGGGSGGGGSGGGGSQVQLVQSGAEVKKPGATVKISCKVSGDTITAYYMHWVRQAPGQGLEWIGRIDPEDDSTKYAENFKGRVTITADTSTDTAYMELSSLRSEDTAVYYCTTVTCYYSRELRWFAYWGQGTLVTVSS VL: DIVLTQSPATLSLSPGERATLSCQASRDIGNYLSWYQQKPGQAPRLLIYSATSLASGIPARFSGSRSGTDFTLTISSLEPEDFAVYYCLQHYSTPYTFGQGTKLEIK = binds
IC-Cy08-QE (other, IC-Cy08 with light chain Q27E; also called H6K3(H)-Cy-08-QE) heavy: APTSSSTKKTQLQLEHLLLDLQMILNGINNYKNPKLTRMLTFKFYMPKKATELKHLQCLEEELGCLEEVLNLAQSKNFHLRPRDLISNIRVIVLELKGSETTFMCEYADETATIVEFLNRWITFCQSIISTLTGGGGSGGGGSGGGGSGGGGSQVQLVQSGAEVKKPGATVKISCKVSGDTITAYYMHWVRQAPGQGLEWIGRIDPEDDSTKYAENFKGRVTITADTSTDTAYMELSSLRSEDTAVYYCTTVTCYYSRELRWFAYWGQGTLVTVSS VL: DIVLTQSPATLSLSPGERATLSCQASEDIGNYLSWYQQKPGQAPRLLIYSATSLASGIPARFSGSRSGTDFTLTISSLEPEDFAVYYCLQHYSTPYTFGQGTKLEIK = binds
